- Test system: NCI-460
- assay-name: Cell growth, sulforhodamine B
- Assay type: cell-based
- particulars: read-out: IC50 growth inhibition; Lung, NCI-460, 72 hours, SRB
observed-property: IC50 (µM)
Give bare numbers, in µM.

[Q] Returns the measured IC50 for the input molecule. Input: CC(C)c1cnn2c(NCc3ccccc3)cc(NCCCCCCN)nc12 [BS-181]
[A] 21

###

- System: ZR-75-1
- assay-name: Cell growth, sulforhodamine B
- Type: cell-based
- particulars: read-out: IC50 growth inhibition; Breast, ZR-75-1, 72 hours, SRB
observed-property: pIC50
Numbers only, as −log10 of the molar value.

[Q] Returns the measured pIC50 for the input molecule. Input: CC(C)c1cnn2c(NCc3ccccc3)cc(NCCCCCCN)nc12
[A] 4.59
